Reported viability, T/C values are given for each entry in this list.
Tested on: 556581-035-R-J1-PDC spheroids with HUVEC/MSC, viability;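 also: spheroids exposed to compounds for 7 days before readout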
ASSAY_TEXT: Anticancer human tumor 556581-035-R-J1-PDC patient-derived ovarian carcinoma cell line growth inhibition [IpAb]
CONDITIONS: second compound 0.1 µM; first compound 0.1 µM; hits give low values
The reply should contain only the number, in %.

// below: answered compounds
CCCS(=O)(=O)Nc1ccc(F)c(C(=O)c2c[nH]c3ncc(-c4ccc(Cl)cc4)cc23)c1F + CC(C)NCC(C(=O)N1CCN(c2ncnc3c2C(C)CC3O)CC1)c1ccc(Cl)cc1 :: 83
CC1(C)CCC(CN2CCN(c3ccc(C(=O)NS(=O)(=O)c4ccc(NCC5CCOCC5)c([N+](=O)[O-])c4)c(Oc4cnc5[nH]ccc5c4)c3)CC2)=C(c2ccc(Cl)cc2)C1 + CCN1CCN(Cc2ccc(Nc3ncc(F)c(-c4cc(F)c5nc(C)n(C(C)C)c5c4)n3)nc2)CC1 :: 104
Cc1nc(NC(=O)N2CCCC2C(N)=O)sc1-c1ccnc(C(C)(C)C(F)(F)F)c1 (centres undefined) + CC(C)NCC(C(=O)N1CCN(c2ncnc3c2C(C)CC3O)CC1)c1ccc(Cl)cc1 :: 68.6

Now examine the next entry.
Enquiry: # get_value(readout='viability, T/C', item= Cc1nc(NC(=O)N2CCCC2C(N)=O)sc1-c1ccnc(C(C)(C)C(F)(F)F)c1 (centres undefined) + CCN1CCN(Cc2ccc(Nc3ncc(F)c(-c4cc(F)c5nc(C)n(C(C)C)c5c4)n3)nc2)CC1 )
Return: 62

Reference for the values: PubChem BioAssay AID2060338
